target: cGMP-dependent protein kinase 2 (Homo sapiens); settings: at 0.1 µM;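 also: reported figure is a mean inhibition value against PRKG2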
inhibition listing for selected compounds.
Express your answer in %, writing the number without its unit.

{"Compound": "CCCN1CCCC(c2ccc(Nc3nc(Nc4cc(F)ccc4C(N)=O)c4cc[nH]c4n3)c(OC)c2)C1 (stereo unspecified)", "inhibition (%)": 4.78}
{"Compound": "COc1cccc(-n2nc(C)c3c(N/N=C(\\C)c4ccncc4)ncnc32)c1", "inhibition (%)": 0.35}
{"Compound": "COc1cccc(-n2ncc3c(N/N=C/c4ccc(S(C)(=O)=O)cc4)ncnc32)c1", "inhibition (%)": 1.59}
{"Compound": "C[C@@H](Oc1cc(-n2cnc3ccc(OCC4CCN(C)CC4)cc32)sc1C(N)=O)c1ccccc1C(F)(F)F", "inhibition (%)": -1.61}
{"Compound": "OCc1ccc(-c2nc(-c3ccccn3)c(-c3ccc4c(c3)OCO4)[nH]2)cc1", "inhibition (%)": 2.69}
{"Compound": "Cc1ccc(NC(=O)CC2CC2)cc1-c1ccc(C(=O)NCC2CC2)cc1", "inhibition (%)": 1.38}
{"Compound": "Cc1nc(-c2ccccc2)n2nc(NCCCN3CCOCC3)ncc12", "inhibition (%)": 1.49}
{"Compound": "c1ccc(Cc2nc3ccc(Nc4ncnc5ccccc45)cc3[nH]2)cc1", "inhibition (%)": 1.61}
{"Compound": "COC(=O)c1ccc2c(c1)C(=Cc1cc(Br)c(O)c(Br)c1)C(=O)N2", "inhibition (%)": 1.59}
{"Compound": "COc1cc2ncnc(Nc3ccc(C)c(O)c3)c2cc1OC", "inhibition (%)": 2.18}

The recorded inhibition for entry CN(C)c1cc2c(Nc3ccc4c(cnn4Cc4ccccc4)c3)ncnc2cn1 equals 2.57

The recorded inhibition for entry CS(=O)(=O)Nc1cccc(-c2ccc3c(NC(=O)C4CC4)n[nH]c3c2)c1 equals 1.34
